- Tested On: T1, EsCas13d, nuclease-dead (Eubacterium siraeum, UniProt B0MS50, R295A;H300A;R849A;H854A)
- T1 sequence: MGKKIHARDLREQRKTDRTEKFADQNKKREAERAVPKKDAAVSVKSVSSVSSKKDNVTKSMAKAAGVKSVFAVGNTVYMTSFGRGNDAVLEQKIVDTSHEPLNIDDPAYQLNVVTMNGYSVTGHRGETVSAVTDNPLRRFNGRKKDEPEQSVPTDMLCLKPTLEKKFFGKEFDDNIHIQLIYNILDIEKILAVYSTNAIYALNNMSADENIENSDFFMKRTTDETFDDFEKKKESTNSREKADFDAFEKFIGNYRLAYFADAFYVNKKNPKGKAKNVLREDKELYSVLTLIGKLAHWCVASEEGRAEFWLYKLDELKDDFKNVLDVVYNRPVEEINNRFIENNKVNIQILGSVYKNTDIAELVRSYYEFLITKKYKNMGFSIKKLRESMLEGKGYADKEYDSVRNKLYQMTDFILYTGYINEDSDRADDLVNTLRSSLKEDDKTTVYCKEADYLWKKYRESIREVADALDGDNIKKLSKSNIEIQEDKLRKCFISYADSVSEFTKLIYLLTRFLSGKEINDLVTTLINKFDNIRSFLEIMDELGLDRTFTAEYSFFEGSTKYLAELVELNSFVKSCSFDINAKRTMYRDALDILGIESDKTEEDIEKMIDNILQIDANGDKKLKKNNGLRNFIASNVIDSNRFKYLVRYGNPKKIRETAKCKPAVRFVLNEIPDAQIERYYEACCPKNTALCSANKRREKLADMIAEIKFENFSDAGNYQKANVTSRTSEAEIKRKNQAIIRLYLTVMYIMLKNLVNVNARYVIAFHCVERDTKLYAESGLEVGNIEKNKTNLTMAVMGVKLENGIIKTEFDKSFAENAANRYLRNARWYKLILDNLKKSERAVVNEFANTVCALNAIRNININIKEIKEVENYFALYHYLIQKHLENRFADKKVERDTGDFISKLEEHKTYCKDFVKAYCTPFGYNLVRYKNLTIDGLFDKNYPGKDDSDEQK
- Test Protocol: BLI; crRNA (strand 1, pre-loaded); Mg2+; 40 mM Tris-HCl pH 7.5, 150 mM NaCl, 6 mM MgCl2, 1 mM DTT, 0.1% Tween-20, 0.2 mg/ml BSA; temperature not stated
- Applied Conditions: tags: His6-TwinStrep-SUMO cleaved; label: 3' biotin on strand 2
Quick list: pKd per entry.
The read-out pKd is expressed as -log10 of concentration in moles per litre.

Some solved entries appear below for comparison.
{"columns": ["Binder", "Quantity Kind", "Value Reported"],
 "data": [
  ["target 1 A18G (60-mer) (mixed) RNA 1: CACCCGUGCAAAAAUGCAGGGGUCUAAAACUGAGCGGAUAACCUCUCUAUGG RNA 2: CCACAUCUACGAAUUCGUACCAUGGAGAGGUUAUCCGCUCACCGAGAUCGGAAGAGCACA", "pKd", 8.06],
  ["target 1 C2G (60-mer) (mixed) RNA 1: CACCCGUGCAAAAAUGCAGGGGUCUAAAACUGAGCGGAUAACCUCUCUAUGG RNA 2: CCACAUCUACGAAUUCGUACCAUAGAGAGGUUAUCCGCUGACCGAGAUCGGAAGAGCACA", "pKd", 8.70],
  ["target 1 C4A (60-mer) (mixed) RNA 1: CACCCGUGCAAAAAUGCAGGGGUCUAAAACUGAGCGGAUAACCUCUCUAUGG RNA 2: CCACAUCUACGAAUUCGUACCAUAGAGAGGUUAUCCGAUCACCGAGAUCGGAAGAGCACA", "pKd", 8.80],
  ["crRNA-2 (MT) target (mixed) RNA 1: CACCCGUGCAAAAUUGCAGGGGUCUAAAACCUUGAAGUUUUCCAAGUGCACU RNA 2: UCCACAGCAAGUGCACUUGGAAAACUUCAAGAUGUGGUCA", "pKd", 8.52],
  ["target 1 G5U (60-mer) (mixed) RNA 1: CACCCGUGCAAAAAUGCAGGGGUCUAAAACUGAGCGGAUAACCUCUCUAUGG RNA 2: CCACAUCUACGAAUUCGUACCAUAGAGAGGUUAUCCUCUCACCGAGAUCGGAAGAGCACA", "pKd", 8.03]
]}

The binder target 1 A20C (60-mer) (mixed) RNA 1: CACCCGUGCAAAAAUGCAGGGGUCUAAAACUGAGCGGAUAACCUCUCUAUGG RNA 2: CCACAUCUACGAAUUCGUACCCUAGAGAGGUUAUCCGCUCACCGAGAUCGGAAGAGCACA showed pKd equal to 8.20

The binder target 1 3'-GUU (60-mer) (mixed) RNA 1: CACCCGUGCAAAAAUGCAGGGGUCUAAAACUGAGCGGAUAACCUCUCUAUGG RNA 2: CCACAUCUACGAAUUCGUACCAUAGAGAGGUUAUCCGCUCAGUUAGAUCGGAAGAGCACA showed pKd equal to 8.36
